Assay: Stability in simulated intestinal fluid
Type: in vitro ADME
Conditions: 2 μM peptidomimetic, simulated intestinal fluid pH 7.5, 37° C.
Description: Reactions were terminated by the addition of TFA/H2O (15 mL, 10% (v/v)). […] The column was equilibrated with TFA/H20, at a flow rate of 1 mL/min.
measurement label: half-life (t1/2) when incubated with simulated intestinal fluid

{"compound": "CCc1cc(OC)ccc1-c1ccc(CC(C(=O)N(C)C(CCCc2ccccc2F)C(N)=O)N(C)C(=O)[C@H](CC(=O)O)N(C)C(=O)[C@H](CO)NC(=O)[C@@H](NC(=O)C(C)(Cc2ccccc2F)NC(=O)[C@@H](NC(=O)CNC(=O)C(CCC#N)NC(=O)C(C)(C)NC(=O)[C@@H](N)Cc2c[nH]cn2)[C@H](C)O)[C@H](C)O)cc1 (single isomer, unassigned) [compound 156]", "result": "(6) h"}
{"compound": "CCc1cc(OC)ccc1-c1ccc(CC(C(=O)N(C)C(CCCc2ccccc2F)C(N)=O)N(C)C(=O)[C@H](CC(=O)O)NC(=O)[C@H](CO)NC(=O)[C@@H](NC(=O)C(C)(Cc2ccccc2F)NC(=O)[C@@H](NC(=O)CNC(=O)C(CCC#N)NC(=O)C(C)(C)NC(=O)[C@@H](N)Cc2c[nH]cn2)[C@H](C)O)[C@H](C)O)cc1 (single isomer, unassigned) [compound 144]", "result": "(6) h"}
{"compound": "CCc1cc(OC)ccc1-c1ccc(CC(NC(=O)[C@H](CC(=O)O)NC(=O)[C@H](CO)NC(=O)[C@@H](NC(=O)C(C)(Cc2ccccc2F)NC(=O)[C@@H](NC(=O)CNC(=O)C(CCC#N)NC(=O)C(C)(C)NC(=O)[C@@H](N)Cc2c[nH]cn2)[C@H](C)O)[C@H](C)O)C(=O)N(C)C(CCCc2ccccc2F)C(N)=O)cc1 (single isomer, unassigned) [compound 132]", "result": "(6) h"}

----------
test system: RIN5F (Rat Insulinoma) cells; assay: In vitro glucose-dependent insulin secretion (RIN5F cell assay screening protocol); type: cell-based; details: 10 nM test compd., 16.7 mM glucose load
Non-standard residues stand in square brackets, D forms with d. Residues, ends and D or L forms follow the SMILES beside them. ξ: configuration not given here. ξBip(2'-Et-4'-OMe) = CCc1cc(OC)ccc1-c1ccc(CC(N)C(=O)O)cc1; ξαMePhe(2-F) = CC(N)(Cc1ccccc1F)C(=O)O; aThr = C[C@H](O)[C@H](N)C(=O)O; ξhhPhe = NC(CCCc1ccccc1)C(=O)O; Aib = CC(C)(N)C(=O)O
measurement label: Insulin secretion (pg/µg/h)
Write it as a number; the unit pg/µg/h goes unstated.

// sample CCc1cc(OC)ccc1-c1ccc(CC(NC(=O)[C@H](CC(=O)O)NC(=O)[C@H](CO)NC(=O)[C@@H](NC(=O)C(C)(Cc2ccccc2)NC(=O)[C@@H](NC(=O)CNC(=O)[C@H](CC(C(F)(F)F)C(F)(F)F)NC(=O)C(C)(C)NC(=O)[C@@H](N)Cc2c[nH]cn2)[C@@H](C)O)[C@@H](C)O)C(=O)NC(CCCc2ccccc2)C(N)=O)cc1 (single isomer, unassigned) [compound 230] , its Insulin secretion was 28.1

Insulin secretion in this record for CCc1cc(OC)ccc1-c1ccc(CC(NC(=O)[C@H](CC(=O)O)NC(=O)[C@H](CO)NC(=O)[C@@H](NC(=O)C(C)(Cc2ccccc2F)NC(=O)[C@@H](NC(=O)CNC(=O)C(CCC#N)NC(=O)C(C)(C)NC(=O)[C@@H](N)Cc2c[nH]cn2)[C@H](C)O)[C@@H](C)O)C(=O)NC(CCCc2ccccc2F)C(N)=O)cc1 (single isomer, unassigned) [compound 112] : 35.5

The value of Insulin secretion measured for the compound CCc1cc(OC)ccc1-c1ccc(CC(NC(=O)[C@H](CC(=O)O)NC(=O)[C@H](CO)NC(=O)[C@@H](NC(=O)[C@H](Cc2ccccc2)NC(=O)[C@@H](NC(=O)CNC(=O)C(CCC#N)NC(=O)C(C)(C)NC(=O)[C@@H](N)Cc2c[nH]cn2)[C@@H](C)O)[C@@H](C)O)C(=O)NC(CCCc2ccccc2Cl)C(N)=O)cc1 (single isomer, unassigned) [compound 82] turned out to be 36.7

Sample CCc1cc(OC)ccc1-c1ccc(CC(NC(=O)[C@H](CC(=O)O)NC(=O)[C@H](CO)NC(=O)[C@@H](NC(=O)C(C)(Cc2ccccc2F)NC(=O)[C@@H](NC(=O)CNC(=O)[C@H](CCC(N)=O)NC(=O)C(C)(C)NC(=O)[C@@H](N)Cc2c[nH]cn2)[C@H](C)O)[C@@H](C)O)C(=O)NC(CCCc2ccccc2)C(N)=O)cc1 (some centres unmarked) [compound 109] (H-H[Aib]QG[aThr][ξαMePhe(2-F)]TSD[ξBip(2'-Et-4'-OMe)][ξhhPhe]-NH2) ; Insulin secretion observed: 29.7

Input CCc1cc(OC)ccc1-c1ccc(CC(NC(=O)[C@H](CC(=O)O)NC(=O)[C@H](CO)NC(=O)[C@@H](NC(=O)C(C)(Cc2ccccc2F)NC(=O)[C@@H](NC(=O)CNC(=O)C(CCC#N)NC(=O)C(C)(C)NC(=O)[C@H](Cc2c[nH]cn2)NC(=O)OC)[C@@H](C)O)[C@@H](C)O)C(=O)NC(CCCc2ccccc2)C(N)=O)cc1 (single isomer, unassigned) [compound 206] . Output Insulin secretion: 27.8

----------
Could you please report measured % degradation of peptidomimetics in 24 h when incubated with simulated gastric fluid for the items listed next?
assay: Stability in simulated gastric fluid; type: in vitro ADME; settings: 2 μM peptidomimetic, simulated gastric fluid pH 1.5, 37° C., 24 h
Non-standard residues stand in square brackets, D forms with d. Residues, ends and D or L forms follow the SMILES beside them. ξ: configuration not given here. Leu(5,5,5,5',5',5'-F6) = N[C@@H](CC(C(F)(F)F)C(F)(F)F)C(=O)O; ξBip(2'-Et-4'-OMe) = CCc1cc(OC)ccc1-c1ccc(CC(N)C(=O)O)cc1; ξNva(5-(3,5-Me2-Ph)) = Cc1cc(C)cc(CCCC(N)C(=O)O)c1; ξNva(5-(3-Cl-Ph)) = NC(CCCc1cccc(Cl)c1)C(=O)O; ξαMePhe(2-F) = CC(N)(Cc1ccccc1F)C(=O)O; Aib = CC(C)(N)C(=O)O
Numeric only. Scale: %

response.value for CCc1cc(OC)ccc1-c1ccc(CC(CNC(CCCc2ccccc2F)C(N)=O)NC[C@H](CC(=O)O)NC(=O)[C@H](CO)NC(=O)[C@@H](NC(=O)C(C)(Cc2ccccc2F)NC(=O)[C@@H](NC(=O)CNC(=O)C(CCC#N)NC(=O)C(C)(C)NC(=O)[C@@H](N)Cc2c[nH]cn2)[C@H](C)O)[C@H](C)O)cc1 (single isomer, unassigned) (field: % degradation of peptidomimetics in 24 h when incubated with simulated gastric fluid) = 00

Data point: CCc1cc(OC)ccc1-c1ccc(CC(NC(=O)[C@H](CC(=O)O)NC(=O)[C@H](CO)NC(=O)[C@@H](NC(=O)[C@H](Cc2ccccc2)NC(=O)[C@@H](NC(=O)CNC(=O)C(CCC#N)NC(=O)C(C)(C)NC(=O)[C@@H](N)Cc2c[nH]cn2)[C@@H](C)O)[C@@H](C)O)C(=O)NC(CCCc2ccc(Cl)cc2C)C(N)=O)cc1 (single isomer, unassigned) ; % degradation of peptidomimetics in 24 h when incubated with simulated gastric fluid = 100

// CCc1cc(OC)ccc1-c1ccc(CC(NC(=O)[C@H](CC(=O)O)NC(=O)[C@H](CO)NC(=O)[C@@H](NC(=O)[C@H](Cc2ccccc2)NC(=O)[C@@H](NC(=O)CNC(=O)C(CCC#N)NC(=O)C(C)(C)NC(=O)[C@@H](N)Cc2c[nH]cn2)[C@@H](C)O)[C@@H](C)O)C(=O)NC(CCCc2ccc(OC)cc2Cl)C(N)=O)cc1 (single isomer, unassigned) : % degradation of peptidomimetics in 24 h when incubated with simulated gastric fluid value = 45

So for CCc1cc(OC)ccc1-c1ccc(CC(NC(=O)[C@H](CC(=O)O)NC(=O)[C@H](CO)NC(=O)[C@@H](NC(=O)[C@H](Cc2ccccc2)NC(=O)[C@@H](NC(=O)CNC(=O)[C@H](CCC(N)=O)NC(=O)[C@H](C)NC(=O)[C@@H](N)Cc2c[nH]cn2)[C@@H](C)O)[C@@H](C)O)C(=O)NC(CCCc2cc(C)cc(C)c2)C(N)=O)cc1 (some centres unmarked) [compound 14] (H-HAQGTFTSD[ξBip(2'-Et-4'-OMe)][ξNva(5-(3,5-Me2-Ph))]-NH2) , the logged % degradation of peptidomimetics in 24 h when incubated with simulated gastric fluid turned out to be 12

For this compound ( CCc1cc(OC)ccc1-c1ccc(CC(NC(=O)[C@H](CC(=O)O)NC(=O)[C@H](CO)NC(=O)[C@@H](NC(=O)C(C)(Cc2ccccc2F)NC(=O)[C@@H](NC(=O)CNC(=O)[C@H](CC(C(F)(F)F)C(F)(F)F)NC(=O)C(C)(C)NC(=O)[C@@H](N)Cc2c[nH]cn2)[C@@H](C)O)[C@@H](C)O)C(=O)NC(CCCc2cccc(Cl)c2)C(N)=O)cc1 (some centres unmarked) [compound 236] (H-H[Aib][Leu(5,5,5,5',5',5'-F6)]GT[ξαMePhe(2-F)]TSD[ξBip(2'-Et-4'-OMe)][ξNva(5-(3-Cl-Ph))]-NH2) ), measured % degradation of peptidomimetics in 24 h when incubated with simulated gastric fluid is 00
